Experimental protocol: NCI Yeast Anticancer Drug Screen. Data for the bub3 strain (AID 167)
Cond: S. cerevisiae bub3 mutant strain, at 50.0 µM
Compounds without any hit were thinned out: in the full panel of roughly 79,000, 15% have a hit. Active and inactive are the calls of the source. No stated cut-off is given here; in the data, active means growth inhibition above about 70%; inactive means the rest.
Select the correct class. Options are 1 (yes) = active, 0 (no) = inactive and nothing else.

# input Check the results log: what was the call for `O=CC1(c2ccccc2)CCN(Cc2ccccc2)CC1` ?
# output 0 (no)

# input Check the results log: what was the call for CC(=O)OCC1OC(S[As](C)C)C(OC(C)=O)C(OC(C)=O)C1OC(C)=O (configuration not stated) ?
# output 0 (no)

# input Check the results log: what was the call for `O=C(Nc1ccccc1)Nc1ccc(N(CCCl)CCCl)cc1` ?
# output 0 (no)

# input Check the results log: what was the call for `CCOP(=O)(O)OCC` ?
# output 0 (no)

# input Check the results log: what was the call for `CCN(CC)c1cccc(OC(=O)NC)c1` ?
# output 0 (no)

# input Check the results log: what was the call for `Oc1cc(Cl)ccc1Cl` ?
# output 1 (yes)

# input Check the results log: what was the call for `COc1ccc2[se]c(C)nc2c1` ?
# output 0 (no)

====

Experimental protocol: NCI Yeast Anticancer Drug Screen. Data for the rad50 strain (AID 155);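 further: 0% = growth of vehicle-only cultures of the same strain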
Cond: S. cerevisiae rad50 strain growth inhibition; at 50.0 µM
About 79,000 compounds went through this panel and 15% of them were active in at least one assay; those are over-represented in the sample as a whole. Active and inactive are the calls of the source. Rule as the data show it: active = growth inhibition above about 70%; inactive = the rest.
Select the correct class. Options are 1.0 = active, 0.0 = inactive and nothing else.

# input Check the results log: what was the call for `Cn1nnnc1NC#N` ?
# output 0.0

# input Check the results log: what was the call for CC(C)(O)OC1COC(C2CS2)C1O (centres undefined) ?
# output 0.0

# input Check the results log: what was the call for COP(=O)(OC)C(O)C(Br)(Br)Br (centres undefined) ?
# output 0.0

# input Check the results log: what was the call for COc1ccc2c(c1)CC(CN1CCC3(CC1)C(=O)N(C)CN3c1ccccc1)O2 (centres undefined) ?
# output 0.0

# input Check the results log: what was the call for COc1ccc(N=NC(=O)NC(CC(C)C)C(=O)NC(C)C(=O)O)cc1 (centres undefined) ?
# output 0.0

# input Check the results log: what was the call for `C=COC(N)=O` ?
# output 0.0

# input Check the results log: what was the call for Nc1cc(S(=O)(=O)O)cc2cc(S(=O)(=O)O)c(N=Nc3ccc([As]=O)cc3)c(O)c12 (centres undefined) ?
# output 0.0

# input Check the results log: what was the call for CCCCC(C(=O)NN)P(=O)(OCC)OCC (centres undefined) ?
# output 0.0

# input Check the results log: what was the call for `CC(=N\[O-])/C(C)=N/[O-].CC(=N\[O-])/C(C)=N/[O-].[Cu+2]` ?
# output 0.0

# input Check the results log: what was the call for CN(C)C(=O)NC(O)C(Cl)(Cl)Cl (centres undefined) ?
# output 0.0

# input Check the results log: what was the call for `C#CCn1c(I)cc2c(c1=O)COC(=O)[C@]2(O)CC` ?
# output 0.0

# input Check the results log: what was the call for `CCOC(OCC)c1ccc(C(F)(F)F)cc1.[C-]#[O+].[C-]#[O+].[C-]#[O+].[Cr]` ?
# output 0.0

# input Check the results log: what was the call for `Clc1ccc(N=P(c2ccccc2)(c2ccccc2)c2ccccc2)cc1.[Cl][Cd][Cl]` ?
# output 1.0

# input Check the results log: what was the call for `O=[N+]([O-])c1cc([As](=O)(O)O)ccc1S(=O)(=O)O` ?
# output 0.0

# input Check the results log: what was the call for BrCC[N+]12CC[N+](CCBr)(CC1)C2 (tested in a mixture with another compound) ?
# output 0.0

# input Check the results log: what was the call for `ClCc1ccc(Cl)c(Cl)c1` ?
# output 0.0

# input Check the results log: what was the call for `COc1cc(/C=C(\C)[N+](=O)[O-])cc(OC)c1` ?
# output 0.0

# input Check the results log: what was the call for `O=N[O-].O=N[O-].[Co].[NH-]CC[N-]CCO.[NH-]CC[N-]CCO` ?
# output 0.0

# input Check the results log: what was the call for `Cc1cc(C)n(/C(N)=N/[N+](=O)[O-])n1` ?
# output 0.0

# input Check the results log: what was the call for COc1ccc(C(CC(=O)O)CC(=O)N(CCCl)CCCl)cc1C (centres undefined) ?
# output 0.0

# input Check the results log: what was the call for `COc1cc2c(cc1OC)-c1c3c(cc4c1[C@H](C2)N(C)CC4)OCO3` ?
# output 0.0

# input Check the results log: what was the call for `C/C(CC(C)(C)N1CC1)=N\N` ?
# output 0.0

# input Check the results log: what was the call for CC(=O)C1CCC2C3CCC4CC(O)CCC4(C)C3CCC12C (centres undefined) ?
# output 0.0

# input Check the results log: what was the call for `Cc1ccccc1-n1c(C)nc2ccccc2c1=O` ?
# output 0.0

====

Experimental protocol: NCI Yeast Anticancer Drug Screen. Data for the sgs1 mgt1 strain (AID 161);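 further: 0% = growth of cultures given vehicle only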
Cond: S. cerevisiae sgs1 mgt1 strain, at 50.0 µM, hits give high values
Compounds without any hit were thinned out: in the full panel of roughly 79,000, 15% have a hit.
Recorded endpoint: growth inhibition (%)
Report the value in % with no unit label.

# input # lookup: growth inhibition of Cn1cnc([N+](=O)[O-])c1C(=O)O (tested in a mixture with another compound)
# output -6.65

# input # lookup: growth inhibition of `O=C(OC12CCN(CC1)CC2)c1ccccc1`
# output 4.25

# input # lookup: growth inhibition of CC1OC(OC2CCC3(C=O)C4CCC5(C)C(C6=CC(=O)OC6)CCC5(O)C4CCC3(O)C2)C(O)C(O)C1O (stereo not given)
# output -5.65

# input # lookup: growth inhibition of COc1ccc(OP2OCC(C)O2)cc1 (stereo not given)
# output -10.4

# input # lookup: growth inhibition of C/C(CCl)=N\NC1=NC2(CCCCC2)P(=O)(NNc2ncccn2)S1 (stereo not given)
# output 19.9

====

Experimental protocol: NCI Yeast Anticancer Drug Screen. Data for the bub3 strain (AID 167)
Cond: S. cerevisiae bub3 mutant strain, at 50.0 µM, hits give high values
The panel holds about 79,000 compounds, 15% with a hit somewhere; the sample as a whole holds those more often. Activity calls are given as the source filed them. No stated cut-off is given here; in the data, active means growth inhibition above about 70%; inactive means the rest.
Recorded endpoint: growth inhibition

# input # lookup: growth inhibition of `c1cc2c(cc1NC1=NCCO1)CCC2`
# output 8.6% (inactive)

# input # lookup: growth inhibition of CCN1C(=O)C(C)C(=O)N(C)C1=O (configuration not stated)
# output 0.1% (inactive)

# input # lookup: growth inhibition of `CCCCCCCCCCC[CH2][Hg][Cl]`
# output -3.45% (inactive)

# input # lookup: growth inhibition of `C[C@]12CC[C@H]3[C@@H](CC[C@H]4N(CCCl)CCC[C@]34C)[C@@H]1CC[C@@H]2O`
# output 69.2% (inactive)

# input # lookup: growth inhibition of COc1cc(OC)c(SC)cc1CC(C)N (configuration not stated)
# output 21.3% (inactive)

# input # lookup: growth inhibition of O=C(NCCc1ccccn1)c1ccc2cc(C(=O)N3CC(CCl)c4ccc([N+](=O)[O-])cc43)[nH]c2c1 (configuration not stated)
# output 2.95% (inactive)

# input # lookup: growth inhibition of `Cc1csc2sc3ccccc3[n+]12`
# output -11.9% (inactive)

# input # lookup: growth inhibition of `C=CC[As+](c1cccc2ccccc12)(c1cccc2ccccc12)c1cccc2ccccc12`
# output 5.15% (inactive)

# input # lookup: growth inhibition of `[N-]=[N+]=C1C(=O)NN=C1c1ccccc1`
# output -17.2% (inactive)

# input # lookup: growth inhibition of CCC1CCC2CCCC(C)N12 (configuration not stated)
# output 8.2% (inactive)

# input # lookup: growth inhibition of `Nc1nnc(N)n1N`
# output 1.5% (inactive)

# input # lookup: growth inhibition of `Cc1ccccc1-n1c(/C=C\c2ccccn2)nc2ccccc2c1=O`
# output 53.6% (inactive)

====

Experimental protocol: NCI Yeast Anticancer Drug Screen. Data for the mec2-1 strain (AID 157)
Cond: S. cerevisiae mec2-1 strain, at 50.0 µM, hits give high values
The panel holds about 79,000 compounds, 15% with a hit somewhere; the sample as a whole holds those more often. Active and inactive are the calls of the source. No stated cut-off is given here; in the data, active means growth inhibition above about 70%; inactive means the rest.
Recorded endpoint: growth inhibition

# input # lookup: growth inhibition of C[N+]12CCC(c3ccccc3)(CC1)C(O)C2 (stereo unspecified)
# output -4.75% (inactive)

# input # lookup: growth inhibition of CC(Oc1ccc([N+](=O)[O-])cc1Cl)C(=O)Nc1ccc(S(=O)(=O)F)cc1 (stereo unspecified)
# output -14.4% (inactive)

# input # lookup: growth inhibition of `O=S(=O)(O)O.[In]`
# output 41.6% (inactive)

# input # lookup: growth inhibition of `COc1ccc([Se]c2ccc(OC)cc2OC)c(OC)c1`
# output -39% (inactive)

# input # lookup: growth inhibition of `O=C(Cc1ccc(N(CCCl)CCCl)cc1)NC1CCCC1`
# output -16.6% (inactive)

# input # lookup: growth inhibition of `S=[As](c1ccc(-c2ccccc2)cc1)(c1ccc(-c2ccccc2)cc1)c1ccc(-c2ccccc2)cc1`
# output -5.55% (inactive)
